# STUDY_TARGET: Nuclear receptor subfamily 1 group I member 2 (Rattus norvegicus)
# EXPERIMENT: qHTS assay for small molecule activators of the rat pregnane X receptor (rPXR) signaling pathway (AID 651751); note: 0% is about no effect
# COND: rPXR reporter cells, luciferase (One-Glo), 24 h
Hi there, I'd appreciate the recorded max response for every entry that follows.
Your answer is read as %, so omit the unit and give the number.

The molecule listed as COc1ccc2c(c1OC)C(=O)OC2C1c2cc3c(cc2CCN1C)OCO3 (stereo not drawn) shows max response equal to 3.69

Summary for this molecule, S=C=S : max response is -0.686

Reported max response ( O=C1C[C@@H]2OCC=C3CN4CC[C@]56c7ccccc7N1[C@H]5[C@H]2[C@H]3C[C@H]46 ) = 0.534

Lab note: C[C@H]1CCC[C@H](O)CCCCCc2cc(O)cc(O)c2C(=O)O1 gave max response of -2.32

So, O=C(O)c1cc[c]([Hg][Cl])cc1 ? Its max response was -6.42

Measured max response, NNC(N)=O : 4.4

The value of max response measured for the molecule [O]=[Cd] turned out to be 0.17

Value of measured max response for the entry Clc1ccccc1Cl : 6.34

get_value(item= CCCSP(=O)(OCC)SCCC , readout=max response) returns 5.9

Summary for this molecule, COCC(C)N(C(=O)CCl)c1c(C)csc1C (stereo not drawn) : max response is 2.96

The measured max response associated with C=CCN=C=S reads 3.71

max response reported for this molecule CC(C)CCON=O : 1.54

Quick note, max response for O=C1C=CC(=O)C=C1 landed at 0.171

Reported max response of O=CC=O : -6.34

CCCCCl yielded max response of -2.58

Summary for this molecule, O=c1[nH]c(=O)n(Cl)c(=O)n1Cl : max response is -4.63

Value of measured max response for the entry O=Cc1ccco1 : 4.33

Documented max response of N#CN : 6.95
